Exercise: state measured amyloid nucleation score for each of the substances provided.
Assay info: amyloid nucleation score (Sup35N fusion, yeast selection) (log enrichment); library NNK2; higher = more nucleation; inactive = no reads after selection;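 also: zero at mode of non-aggregating sequences after 7 days selection at 30°C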
Numbers only.

Example substances with recorded amyloid nucleation score:
substance=DEEVSWRIG result_type="amyloid nucleation score" test_value=0.196
substance=SSPKSWNILS result_type="amyloid nucleation score" test_value=0.106
substance=THYGLMVCQTPVGRRSASCR result_type="amyloid nucleation score" test_value=1.32
substance=YLVELNV result_type="amyloid nucleation score" test_value=0.344

Please state, for each entry, its recorded amyloid nucleation score.
1. CRVLGQRRGASTNVSVHIVE
2. GKQYPFHFI
3. IATTATSVGSVR
4. PASNWIRYRMTFQDGPYVKR
5. GWMCMPAQGAKDNHLLGYLM
6. GGNIGVSYLRWCARINCWWK
7. SVLANIMLVVVGNSGKYRSG
8. RSFLWVFRKYRGW

1. -0.097
2. -0.583
3. 0.924
4. 0.373
5. -0.533
6. 5.49
7. 0.627
8. 0.783

Please state, for each entry, its recorded amyloid nucleation score.
1. FWCGCNFVVHLYVTSSSLKP
2. DRSSMTG
3. SVYRGASKVSRCRNVKTGR

1: 8.01; 2: 0.698; 3: 0.132

Please state, for each entry, its recorded amyloid nucleation score.
1. NCSKENKPGVIETISVGMGP
2. YCTPCLW

[1.01, 0.452]

Please state, for each entry, its recorded amyloid nucleation score.
1. EYRGSVWLAGS
2. YSISNPYACFSNVQSFLLYN
3. LFLTACER
4. MGCLTVVRNLEFNRVCGRGD
5. YTNAFRPRSVRLTVIRIGQY
6. GATCTSCDRCIALVSGGRKR

1. -0.379
2. 2.65
3. 6.72
4. -0.669
5. 4.07
6. 0.313

* * *

Exercise: state measured amyloid nucleation score for each of the substances provided.
Assay info: amyloid nucleation score (Sup35N fusion, yeast selection) (log enrichment); library NNK1; higher = more nucleation; inactive = no reads after selection
Numbers only.

substance=VSLAAPGCGFGCQRSRGASQ test_value=0.013
substance=NVYLGGLVQYFCQWLAGSIR test_value=0.59
substance=YSCGSIPYIRLVLKLIGYVI test_value=-0.016
substance=FQCDVIYA test_value=-0.72
substance=WDWGMCTCRWRDSAASWGKR test_value=0.432
substance=TKNSRTRLASSSLIWNW test_value=-1.45
substance=VSYMQSVVHCGPKARCKWRC test_value=0.964
substance=YERVRPGAIHFRIETI test_value=0.146
substance=SYIPSISAALYFVLVMRHWL test_value=-0.627
substance=NVRSFWFSGNQSNIGGICWG test_value=0.204

Please state, for each entry, its recorded amyloid nucleation score.
1. VSLNASPL
2. RAPLLMSVTLLRHQFCTRME
3. IRVLVSCVGYPFTCILKVWT
4. GPLKPFNASLVGTGAVLHGE
5. NIVSALRYITPYYLAAYPIT
6. TLNLWSAWLLFPYDLAGIFY

1: 0.902; 2: 1.8; 3: 1.18; 4: 0.034; 5: 0.025; 6: -0.199

Please state, for each entry, its recorded amyloid nucleation score.
1. HSPLTRNVRSCVK
2. IQESVMLVLVDGGVISARL
3. NHIQRVSTFVLAMSYYVRTV
4. IYGDGNCIIFLMGQRP
5. RADWYASAGKRCGHLQG
6. RRLTILSTSPWCTPLELNSF
7. QKTASILLPVRYFWCEKSWM

1. 0.718
2. 0.106
3. -0.236
4. 6.38
5. -0.148
6. -0.282
7. -0.667

Please state, for each entry, its recorded amyloid nucleation score.
1. PALNRFLGTERDYDRYAGIA
2. SSNYMFVCRSKDLEVLLVGY
3. KSQLRQSTYPS
4. VEDENKDSVIKVEKLLPHNL
5. HPSTRCAVANDNIWPLSGPR
6. EMSINLRNL

1: -0.8; 2: 0.398; 3: -0.358; 4: -0.342; 5: 0.628; 6: 0.558
